Test system: UO-31 renal
Assay: NCI tumour cell line growth inhibition, 48 h
*1 amine or outer side, *2 acyl side, *3 side chain or, on linkers, in order; H or OH if unused. Where a SMILES comes first, the peptide text is derived from it. Bridges are numbered along the chain shown (N, C = ends). Roman numbers before positions name the chains, in order. [ ]: non-standard residue; d: D form. Actinocin(9to1) = Cc1c2oc3c(C)ccc(C(=O)[*:1])c3nc-2c(C(=O)[*:2])c(N)c1=O; NMeV = CN[CH](C(=O)O)C(C)C; Sar = CNCC(=O)O
OBSERVED_PROPERTY: TGI

Known results for compounds:
COMPOUND	TARGET_ENTITY	OBSERVED_PROPERTY	RECORDED_MEASUREMENT
O=C(O)Cn1ncn(NC(=O)Cc2ccccc2)c1=S	UO-31 renal	TGI	> 10 µM
Clc1ccc(Cl)c2[s+]snc12	UO-31 renal	TGI	> 100 µM
O=c1oc2ccccc2c(O)c1C(c1ccc(O)cc1)c1c(O)c2ccccc2oc1=O	UO-31 renal	TGI	> 100 µM
Cc1c2oc3c(C)ccc(C(=O)NC4C(=O)NC(Cc5ccc(O)cc5)C(=O)N5CCCC5C(=O)N(C)CC(=O)N(C)C(C(C)C)C(=O)OC4C)c3nc-2c(C(=O)NC2C(=O)NC(Cc3ccc(O)cc3)C(=O)N3CCCC3C(=O)N(C)CC(=O)N(C)C(C(C)C)C(=O)OC2C)c(N)c1=O (configuration not stated) (I: TYP[Sar][NMeV] / II: TYP[Sar][NMeV]; ester I:1-I:C, II:1-II:C; linker I:N-II:N via Actinocin(9to1); configuration not given here)	UO-31 renal	TGI	> 61.4 µM
CC(CN(CP(=O)([O-])[O-])CP(=O)([O-])[O-])N(CP(=O)([O-])[O-])CP(=O)([O-])[O-].N.N.[Pt+2] (configuration not stated)	UO-31 renal	TGI	> 100 µM
COCCn1cc(-c2csc(-c3c[nH]c4ccccc34)n2)c2cccnc21	UO-31 renal	TGI	> 100 µM

Notebook: CN(c1ccc(Cl)cc1)S(=O)(=O)c1ccccc1 , TGI read as > 100 µM

====

Test system: CAKI-1 renal
Assay: NCI tumour cell line growth inhibition, 48 h
Overview of reported TGI across a group of compounds:

Reference set (5 entries):
> print(dat)
                                   compound  recorded.measurement
1        CCOC(=O)c1nc2ccccc2nc1Nc1ccc(F)cc1              > 100 µM
2  COCCn1cc(-c2csc(-c3c[nH]c4ccccc34)n2)c2cccnc21              > 100 µM
3  CC(C)(C)C(=O)O[C@H]1C=C[C@@H](O)[C@@H]2[C@H]1[C@@H]1C=C[C@H]2C1              > 100 µM
4  CC(=O)Nc1nc(C)c(S(=O)(=O)NC(=O)N2c3ccccc3CCc3ccccc32)s1              > 100 µM
5  CCC1(O)CC(O)c2c(O)c3c(c(O)c2C1C(=O)OC)C(=O)c1cccc(O)c1C3=O (stereo unspecified)               15.3 µM

Lab book: TGI of CN1C(=O)C(CCO)(C(C)(C)C)c2ccccc21 (stereo unspecified) noted as > 100 µM

The compound C=C(C)C(=O)O[C@H]1CC2(CO)O[C@@H]2CC/C(COC(C)=O)=C/C2OC(=O)C(=C)[C@@H]21 (stereo partly specified) showed TGI equal to > 58.8 µM

Lab book: TGI of N#CC(=S)Nc1cccc(Cl)c1 noted as > 100 µM

Measured TGI, O=c1cccc(C#CC#C[C@H]2O[C@@H]2CO)o1 : 0.359 µM

For Oc1ccc(Cc2ccc(O)c3ncccc23)c2cccnc12 the compound record lists TGI as > 100 µM

Record O=C1CCC(Cc2ccc(Cl)cc2Cl)C(=O)N1 (stereo unspecified) , field TGI: > 100 µM

====

Tested on: T-47D breast
Experiment: NCI tumour cell line growth inhibition, 48 h
As shown below, each of these compounds has a reported TGI value.

Some compounds with known TGI results, for comparison:
> print(dat)
                                   compound  recorded.measurement
1  C/C(=N/S(=O)(=O)c1ccc(Cl)c(Cl)c1)OCC(C)(C)C              > 100 µM
2  Cc1c(C#N)cccc1-c1cc(-c2cn(Cc3cccc(C(C)(C)O)n3)nn2)nc(N)n1               62.5 µM
3      Nc1ccccc1C#C/C=C\C#Cc1ccccc1C(F)(F)F               61.2 µM

Value of TGI reported for the compound C[C@]12CCC3[C@@H](C[C@@H]4SC(Nc5ccccc5)=N[C@@]45CC(=O)CC[C@]35C)[C@@H]1CCC2=O (stereo not given in full) is > 100 µM

The compound listed as O=C(O)c1cc(Nc2c(O)c3c(c(O)c2Cl)C(=O)C=CC3=O)ccc1O has a reported TGI of > 10 µM

Field TGI (entry C1CC[N-]CC1.C1CC[N-]CC1.C1CC[N-]CC1.C1CC[N-]CC1.[Cl][Rh][Cl] ) reads > 100 µM

COc1cc(Nc2nc3cc(N)cc(N)c3nc2-c2ccccc2)cc(OC)c1 yielded TGI of 23 µM

# compound COC(=O)c1c(C)cccc1C1CN=NC12Cc1cccc(C)c1C2=O (stereo not given) ; its TGI = > 100 µM

The compound listed as Cc1ccc2c(c1)nc(C(=O)c1ccco1)c(C(F)(F)F)[n+]2[O-] shows TGI equal to > 100 µM

Form: compound = COc1cccc(OC/C(N=Cc2ccncc2)=N/NC(=O)c2ccncc2)c1 ; TGI = > 100 µM

====

Test system: UO-31 renal
Experiment: NCI tumour cell line growth inhibition, 48 h
Let's look at some compounds and their measured GI50.

COMPOUND	GI50
Cc1c(C#N)cccc1-c1cc(-c2cn(Cc3cccc(C(C)(C)O)n3)nn2)nc(N)n1	10.7 µM
O=c1cccc(C#CC#C[C@H]2O[C@@H]2CO)o1	2.59 µM
CC(=O)OC[C@H]1O[C@@H](n2ccc(=O)[nH]c2=O)[C@H](OC(C)=O)[C@@H]1OC(C)=O	> 100 µM
Oc1ccc(/C=N\Nc2ccccn2)c(O)c1	0.241 µM
CCN(CC)c1ccc(/C=C\c2cc(C)c3cc(C)ccc3n2)cc1	6.97 µM

Recorded GI50 for C=C1C(=O)O[C@H]2[C@H]1CC/C(COC(=O)NCc1cc3ccccc3[nH]1)=C\CC[C@@]1(C)O[C@@H]21 on UO-31 renal was 1.2 µM

====

Entries and their measured TGI follow.
Test system: HCT-116 colon
Experiment: NCI tumour cell line growth inhibition, 48 h
Please respond with the number in µM and leave the unit unwritten.

> print(dat)
                         structure.notation  observed.property  recorded.measurement
1  O=C1c2cccc3cc([N+](=O)[O-])cc(c23)C(=O)N1CCNCCNCCNCCN1C(=O)c2cccc3cc([N+](=O)[O-])cc(c23)C1=O                TGI                  1.08

Let us move to another entry and its TGI.
Lookup result for COc1ccccc1NC(=O)CSC(N)=O ; measured TGI: 36.6

====

Test system: SF-268 CNS
Test: NCI tumour cell line growth inhibition, 48 h; in the data active means GI50 below about 0.43 µM; inactive means the rest
Thanks in advance; please answer with one of these: TRUE = active, FALSE = inactive

# example entries with known answers
MOLECULE	ANSWER_LABEL
O=c1cccc(C#CC#C[C@H]2O[C@@H]2CO)o1	FALSE
N#Cc1c(C(=O)c2ccccc2)cnn1-c1ccccc1	FALSE
N[C@@H](Cc1c[nH]c2ccccc12)C(=O)NC1CCN(C(=O)c2c[nH]c3ccccc23)CC1	FALSE
CCN(CC)c1ccc(/C=C\c2cc(C)c3cc(C)ccc3n2)cc1	FALSE
Cc1ccc2c(c1)nc(C(=O)c1ccco1)c(C(F)(F)F)[n+]2[O-]	FALSE

# fetch the recorded call for CSc1nc2c(c(=O)[nH]1)N=C1c3ccccc3C(=O)C1C(c1ccc(F)cc1)N2 (configuration not stated) here FALSE

Dear colleague, could you share the recorded outcome for Cc1ccc(C(CN(C)C)C(=O)c2ccccc2)cc1 (configuration not stated) when you have a moment? FALSE

====

Test system: HCT-116 colon
Assay: NCI tumour cell line growth inhibition, 48 h
Documented TGI across a set of compounds

A selection of reference data follows.
> print(dat)
                                   compound  recorded.measurement
1  Cc1ccc(C2(N3CCOCC3)OC(C)(C)c3cccc4cccc2c34)cc1 (centres undefined)               36.9 µM
2  Cc1ccc(NC(=O)CC2C(=O)Nc3ccccc3S2=O)cc1C (centres undefined)              > 100 µM

Per the record, O=C(/C=C/c1ccc(OCC(=O)N2CCN(c3ccccc3)CC2)cc1)c1ccc(Cl)cc1 has TGI of > 100 µM

Just so you know, measured TGI for Cc1cn([C@@H]2C[C@](C)(CO)N(C)O2)c(=O)[nH]c1=O came out at > 100 µM

What the record says about OCCCCC#Cc1ccccc1C#Cc1ccccc1 : TGI is 31.6 µM

get_value(item= Cc1ccc(C(=O)NN=C(/N=N/c2cccc(C)c2)c2ccc(N(C)C)cc2)cc1 , readout=TGI) returns > 100 µM

Value of TGI reported for the compound O=C(O)C(=Cc1ccnc2ccccc12)C(=O)O is > 100 µM

Memo: CCOC(=O)CC(=O)Sc1ccccc1 , reported TGI: 26.8 µM

Lookup result for CCOC(=O)NC(OCc1ccccc1)(C(=O)OC)C(F)(F)F (centres undefined) ; measured TGI: > 100 µM
